study system: UniProt P00918

| smiles text | Ki |
| --- | --- |
| NS(=O)(=O)c1nnc(NC(=O)N[C@]23C[C@H]4C[C@H](C[C@H](C4)C2)C3)s1 | 13 nM |

----------
We begin with a simple list: items and their reported Ki.
study system: Carbonic anhydrase 6 (Homo sapiens)
Sequence (P23280 whole entry): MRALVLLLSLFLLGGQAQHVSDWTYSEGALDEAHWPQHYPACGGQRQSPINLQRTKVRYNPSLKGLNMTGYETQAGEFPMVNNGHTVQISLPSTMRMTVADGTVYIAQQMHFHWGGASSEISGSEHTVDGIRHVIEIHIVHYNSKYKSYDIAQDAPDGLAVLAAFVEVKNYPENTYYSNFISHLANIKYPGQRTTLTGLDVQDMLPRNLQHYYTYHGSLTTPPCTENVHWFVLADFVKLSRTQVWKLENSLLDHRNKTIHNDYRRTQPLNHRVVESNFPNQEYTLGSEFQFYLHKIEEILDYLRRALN

| smiles text | Ki [nM] |
| --- | --- |
| NS(=O)(=O)c1nnc(NC(=O)N[C@]23C[C@H]4C[C@H](C[C@H](C4)C2)C3)s1 | 31 |
| CC1(C)O[C@@H]2[C@@H](CC[C@@]3(COS(N)(=O)=O)OC(C)(C)O[C@@H]23)O1 | 45 |

----------
study system: Carbonic anhydrase 7 (Homo sapiens, UniProt P43166)
Sequence (P43166 whole entry): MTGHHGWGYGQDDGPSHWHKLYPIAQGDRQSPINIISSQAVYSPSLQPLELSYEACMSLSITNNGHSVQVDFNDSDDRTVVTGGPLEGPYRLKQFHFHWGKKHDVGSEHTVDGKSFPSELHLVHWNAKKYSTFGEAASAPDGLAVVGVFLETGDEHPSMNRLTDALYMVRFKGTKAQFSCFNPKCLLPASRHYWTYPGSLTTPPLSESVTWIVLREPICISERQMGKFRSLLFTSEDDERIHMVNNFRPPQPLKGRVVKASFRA
Ki values, listed per item
value type: Ki (nM)

| smiles text | study system | value type | unit name | quantitative result |
| --- | --- | --- | --- | --- |
| NS(=O)(=O)c1nnc(NC(=O)[C@]23C[C@H]4C[C@H](C[C@H](C4)C2)C3)s1 | Carbonic anhydrase 7 (Homo sapiens, UniProt P43166) | Ki | nM | 0.5 |
| NS(=O)(=O)c1nnc(NC(=O)N[C@]23C[C@H]4C[C@H](C[C@H](C4)C2)C3)s1 | Carbonic anhydrase 7 (Homo sapiens, UniProt P43166) | Ki | nM | 1.3 |

----------
Heads up, these molecules all have Ki values measured for Carbonic anhydrase 4 (Homo sapiens, UniProt P22748).

| molecule | Ki (nM) |
| --- | --- |
| NS(=O)(=O)c1ccc(N2CCCCS2(=O)=O)cc1 [Ospolot] | 95 |
| NS(=O)(=O)c1nnc(NC(=O)N[C@]23C[C@H]4C[C@H](C[C@H](C4)C2)C3)s1 [Investigational agent, 5] | 30 |

----------
Lab note: Ki readings collected with Carbonic anhydrase 3 (Homo sapiens, UniProt P07451) for the following compounds.
Sequence (P07451 whole entry): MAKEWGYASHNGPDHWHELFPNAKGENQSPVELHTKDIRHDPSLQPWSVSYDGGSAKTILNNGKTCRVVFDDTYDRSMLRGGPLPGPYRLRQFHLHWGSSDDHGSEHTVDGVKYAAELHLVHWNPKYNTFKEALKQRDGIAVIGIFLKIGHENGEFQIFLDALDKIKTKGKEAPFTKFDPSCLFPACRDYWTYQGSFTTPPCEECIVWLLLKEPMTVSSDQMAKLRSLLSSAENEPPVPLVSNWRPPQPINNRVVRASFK

| smiles text | Ki, µM |
| --- | --- |
| CC1(C)O[C@@H]2[C@@H](CC[C@@]3(COS(N)(=O)=O)OC(C)(C)O[C@@H]23)O1 | 780 |
| NS(=O)(=O)c1nnc(NC(=O)[C@]23C[C@H]4C[C@H](C[C@H](C4)C2)C3)s1 | 310 |
| NS(=O)(=O)c1ccc(N2CCCCS2(=O)=O)cc1 | 630 |
| NS(=O)(=O)c1nnc(NC(=O)N[C@]23C[C@H]4C[C@H](C[C@H](C4)C2)C3)s1 | 330 |
